METHOD: Acute Toxicological Test in rats
CONDITION_DESCRIPTION: rat, in vivo, iv, female, one time
METRIC_NAME: LD50 (mg/kg)
Answer in mg/kg, number only, no unit symbol.

Exam item: # lookup: LD50 of COCCCOc1ccnc(C[S+]([O-])c2nc3ccccc3[nH]2)c1C (stereo not shown)
Marked response: 152

----------
System: C. pylori NCTC11637
METHOD: MIC by agar dilution method, C. pylori standard strain NCTC11637
Type: cell-based
CONDITION_DESCRIPTION: Helicobacter pylori, 72 h, in vitro, 37° C., pH 7.0, 3 days, microaerophilic, read-out: antibiotic activity (MIC)
METRIC_NAME: MIC (µg/mL)
Enter your answer as a number in µg/mL; do not include the unit.

Examples from the recorded data:
INSERT INTO assay_data (compound, result_number) VALUES
  ('COCCCOc1ccnc(C[S+]([O-])c2nc3ccccc3[nH]2)c1C (stereo not drawn)', 3.13),
  ('CC[C@H]1OC(=O)[C@H](C)[C@@H](O[C@H]2C[C@@](C)(OC)[C@@H](O)[C@H](C)O2)[C@H](C)[C@@H](O[C@@H]2O[C@H](C)C[C@H](N(C)C)[C@H]2O)[C@](C)(O)C[C@@H](C)/C(=N\OCOCCOC)[C@H](C)[C@@H](O)[C@]1(C)O', 0.4);

Then this compound:
Exam item: Could you tell me which MIC is on file for COc1ccc2[nH]c(SCc3ncc(C)c(OC)c3C)nc2c1 ?
Marked response: 25

----------
Test system: C. pylori EI-612
METHOD: MIC by agar dilution method, C. pylori clinical isolate EI-612
Type: cell-based
CONDITION_DESCRIPTION: Helicobacter pylori, EI612, 72 h; EI-612, clinical isolate; in vitro, 37° C., pH 7.0, 3 days, microaerophilic; read-out: antibiotic activity (MIC)
// boundary case: MIC equal to 0.4 mg/L maps to false (0); strictly smaller maps to true (1)

INSERT INTO assay_data (compound, qualitative_label) VALUES
  ('CC1(C)S[C@@H]2[C@H](NC(=O)[C@H](N)c3ccccc3)C(=O)N2[C@H]1C(=O)O', 'true (1)');

Exam item: Check if MIC falls below 0.4 mg/L for Cc1c(OCC(F)(F)F)ccnc1CSc1nc2ccccc2[nH]1 .
Marked response: false (0)

Exam item: Identify whether the compound CC[C@H]1OC(=O)[C@H](C)[C@@H](O[C@H]2C[C@@](C)(OC)[C@@H](O)[C@H](C)O2)[C@H](C)[C@@H](O[C@@H]2O[C@H](C)C[C@H](N(C)C)[C@H]2O)[C@](C)(O)C[C@@H](C)/C(=N\OCOCCOC)[C@H](C)[C@@H](O)[C@]1(C)O records MIC below 0.4 mg/L.
Marked response: true (1)

Exam item: Dear reviewer, please state whether CC1COc2c(N3CCN(C)CC3)c(F)cc3c(=O)c(C(=O)O)cn1c23 (centres unmarked) has MIC strictly beneath 0.4 mg/L.
Marked response: false (0)

The values you see were collected from patent US5916904A.
